Entries and their pIC50 values follow.
System: A549
ASSAY: Cytotoxicity against human A549 cells after 3 days by MTT assay
Type: functional, cell-based
ASSAY CONTEXT: A549, 72 h
pIC50: −log10 of the molar value.
REPORTED PROPERTY: pIC50

[
  {
    "COMPOUND": "COC1=C(C)C(=O)C2=C(C1=O)[C@@H]1[C@@H]3CC4=C(C(=O)C(OC)=C(C)C4=O)[C@H](COC(=O)c4ccccc4)N3C(=O)[C@H](C2)N1C",
    "REPORTED PROPERTY": "pIC50",
    "RECORDED NUMBER": 5.41
  },
  {
    "COMPOUND": "COC1=C(C)C(=O)C2=C(C1=O)[C@@H]1[C@@H]3CC4=C(C(=O)C(OC)=C(C)C4=O)[C@H](COC(=O)/C=C/c4ccc(OC)cc4)N3C(=O)[C@H](C2)N1C",
    "REPORTED PROPERTY": "pIC50",
    "RECORDED NUMBER": 5.08
  },
  {
    "COMPOUND": "C/C=C/C(=O)OC[C@H]1C2=C(C[C@H]3[C@H]4C5=C(C[C@@H](C(=O)N13)N4C)C(=O)C(C)=C(OC)C5=O)C(=O)C(C)=C(OC)C2=O",
    "REPORTED PROPERTY": "pIC50",
    "RECORDED NUMBER": 5.13
  },
  {
    "COMPOUND": "COC1=C(C)C(=O)C2=C(C1=O)[C@@H]1[C@@H]3CC4=C(C(=O)C(OC)=C(C)C4=O)[C@H](COC(=O)/C=C/c4cccc5ccccc45)N3C(=O)[C@H](C2)N1C",
    "REPORTED PROPERTY": "pIC50",
    "RECORDED NUMBER": 5.30
  },
  {
    "COMPOUND": "C/C=C(/C)C(=O)OC[C@H]1C2=C(C[C@H]3[C@H]4C5=C(C[C@@H](C(=O)N13)N4C)C(=O)C(C)=C(OC)C5=O)C(=O)C(C)=C(OC)C2=O [(-)-RENIERAMYCIN G]",
    "REPORTED PROPERTY": "pIC50",
    "RECORDED NUMBER": 5.30
  },
  {
    "COMPOUND": "COC1=C(C)C(=O)C2=C(C1=O)[C@@H]1[C@@H]3CC4=C(C(=O)C(OC)=C(C)C4=O)[C@H](COC(=O)c4cccc5ccccc45)N3C(=O)[C@H](C2)N1C",
    "REPORTED PROPERTY": "pIC50",
    "RECORDED NUMBER": 4.90
  },
  {
    "COMPOUND": "COC1=C(C)C(=O)C2=C(C1=O)[C@@H]1[C@@H]3CC4=C(C(=O)C(OC)=C(C)C4=O)[C@H](COC(=O)/C=C/c4ccc(OC)c(OC)c4OC)N3C(=O)[C@H](C2)N1C",
    "REPORTED PROPERTY": "pIC50",
    "RECORDED NUMBER": 4.98
  },
  {
    "COMPOUND": "COC1=C(C)C(=O)C2=C(C1=O)[C@@H]1[C@@H]3CC4=C(C(=O)C(OC)=C(C)C4=O)[C@H](COC(=O)c4cccnc4)N3C(=O)[C@H](C2)N1C",
    "REPORTED PROPERTY": "pIC50",
    "RECORDED NUMBER": 5.23
  },
  {
    "COMPOUND": "COC1=C(C)C(=O)C2=C(C1=O)[C@@H]1[C@@H]3CC4=C(C(=O)C(OC)=C(C)C4=O)[C@H](COC(=O)/C=C/c4ccc(F)cc4)N3C(=O)[C@H](C2)N1C",
    "REPORTED PROPERTY": "pIC50",
    "RECORDED NUMBER": 5.08
  },
  {
    "COMPOUND": "COC1=C(C)C(=O)C2=C(C1=O)[C@@H]1[C@@H]3CC4=C(C(=O)C(OC)=C(C)C4=O)[C@H](COC(=O)/C=C/c4ccccc4)N3C(=O)[C@H](C2)N1C",
    "REPORTED PROPERTY": "pIC50",
    "RECORDED NUMBER": 5.30
  },
  {
    "COMPOUND": "COC1=C(C)C(=O)C2=C(C1=O)[C@@H]1[C@@H]3CC4=C(C(=O)C(OC)=C(C)C4=O)[C@H](COC(C)=O)N3C(=O)[C@H](C2)N1C",
    "REPORTED PROPERTY": "pIC50",
    "RECORDED NUMBER": 5.35
  }
]
